Source of measurements: PubChem BioAssay (NCI)

# Tested on: MDA-MB-435 melanoma
# measurement.description: NCI-60 one-dose screen, 48 h (100 = growth as untreated, 0 = no growth, -100 = all killed)
# protocol.conditions: 10 µM unless noted
Compounds without any hit were thinned out: in the full panel of roughly 83,000, 20% have a hit.
Would you kindly list growth for each of these compounds?
Give bare numbers, in %.

{"compound": "CN1CCC[C@]2(C)[C@H]3CC[C@@H]4[C@@H]5[C@H]6OC[C@@]5(CCC6(C)C)CC[C@@]4(C)[C@]3(C)CC[C@H]2C1(C)C", "readout.label": "growth", "result.unit": "%", "obs.value": 69.8}
{"compound": "COc1cccc2c1[C@H](OC)[C@]13O[C@@]1(C2=O)[C@H](O)[C@H](C)[C@@](O)(C(=O)[C@@H]1O[C@H]1C)[C@@H]3O", "readout.label": "growth", "result.unit": "%", "obs.value": -72.7}
{"compound": "C#Cc1nc(/C=C/C(=O)NO)cs1", "readout.label": "growth", "result.unit": "%", "obs.value": 61.1}
{"compound": "Cc1csc(/N=C(N)/N=C(\\N)c2cccnc2)n1", "readout.label": "growth", "result.unit": "%", "obs.value": 6}
{"compound": "CSc1ccc(/C(=N/N=C(N)N)c2ccc(Cl)cc2)cc1", "readout.label": "growth", "result.unit": "%", "obs.value": -30.1}

Please report growth for every entry that follows.
1. O=c1[nH][nH]c(-c2ccc(F)cc2)c1-c1nc2ccccc2s1
2. O=C1[C@@H]2Cc3c([nH]c4ccccc34)[C@H](c3ccc(Cl)cc3)N2C(=O)CN1C1CCN(Cc2ccccc2)CC1
3. CCOC(=O)C1=C(C)NC(C)=C(C(=O)OC(C)C)C1c1cccc(C#N)c1 (centres undefined)
4. O=C(CCl)Nc1ccc(NC(=O)c2cc(Cl)ccc2O)c(Cl)c1
5. CC1=Cc2ccccc2OC12C=Cc1ccccc1O2 (centres undefined)
6. O=S(=O)(Oc1ccc(-c2cn3ccsc3n2)cc1)c1cccc(C(F)(F)F)c1
7. CC(C)(C)Nc1nc2c(OCCc3ccccc3)cccn2c1-c1ccc([N+](=O)[O-])cc1

[A]
[104, 54.8, 104, 66, 105, 99.5, 85.3]

---

# Tested on: HCT-15 colon
# measurement.description: NCI-60 one-dose screen, 48 h (100 = growth as untreated, 0 = no growth, -100 = all killed)
# protocol.conditions: 10 µM unless noted
The panel holds about 83,000 compounds, 20% with a hit somewhere; the sample as a whole holds those more often.
Param threshold (40%) applies to growth; output criterion met when value >= threshold, criterion not met when value < threshold.

{"molecule": "Cc1ccc(NC(=O)/C=C/c2ccc(OCCCOc3ccc4c(C)cc(=O)oc4c3)cc2)cc1", "classification": "criterion met"}
{"molecule": "O=C(NCCNc1cc(-c2cn(-c3ccccc3)nc2-c2cccc(O)c2)ccn1)Nc1cc(C(F)(F)F)cc(C(F)(F)F)c1", "classification": "criterion met"}
{"molecule": "Cc1ccc2c(n1)C(=O)C(Cl)=C(Nc1ccc(C(C)C)cc1)C2=O", "classification": "criterion not met"}

[Q] Can CC(=O)OC[C@]12CC[C@@H](C(=O)/C=C/c3cccnc3)[C@@H]1[C@H]1CC[C@@H]3[C@@]4(C)CC[C@H](OC(C)=O)C(C)(C)[C@@H]4CC[C@@]3(C)[C@]1(C)CC2 be said to have growth at or above 40%?
[A] criterion not met

[Q] Can CCc1cc(OC(=O)N2CCN(CCC(C)(COC(C)(C)C)COC(C)(C)C)CC2)ccc1Nc1cc(-c2ccc(-n3cccn3)cc2)[nH]n1 be said to have growth at or above 40%?
[A] criterion met

[Q] Can COc1ccc(OC)c(CCn2cncc2-c2c[nH]c3ccc(Cl)cc23)c1 be said to have growth at or above 40%?
[A] criterion not met

[Q] Can COc1ccc(C2CC(c3cccc(OCCCCOc4cccc(C5=NN(C(C)=O)C(c6ccc(OC)cc6)C5)c4)c3)=NN2C(C)=O)cc1 (stereo not drawn) be said to have growth at or above 40%?
[A] criterion met

---

# System: A549/ATCC NSCLC
# measurement.description: NCI-60 one-dose screen, 48 h
# protocol.conditions: 10 µM unless noted
The panel holds about 83,000 compounds, 20% with a hit somewhere; the sample as a whole holds those more often. Active and inactive are the calls of the source. How the source made its calls: active means growth percent below 10; inactive means the rest.
Reply using exactly one outcome from YES = active, NO = inactive

Record excerpt, results attached:
{"compound": "CC1=C(SCC(=O)OCCCCCC(C)C)C(=O)c2ccccc2C1=O", "tested.on": "A549/ATCC NSCLC", "classification": "NO"}
{"compound": "Cc1cc(=O)[nH]c(O)c1C#N", "tested.on": "A549/ATCC NSCLC", "classification": "NO"}

[Q] State the result this test recorded for CCOC(=O)c1ccc(NC2=CC(=O)C(C)=C(C)C2=O)cc1 .
[A] NO

[Q] State the result this test recorded for Cc1cc2nc3c4cc(C#N)ccc4n(CCN(C)C)c3nc2cc1C .
[A] YES

[Q] State the result this test recorded for O=C1[C@@H]2Cc3c([nH]c4ccccc34)[C@@H](c3ccc(Cl)cc3)N2C(=O)CN1C1CCN(Cc2c(F)cccc2F)CC1 .
[A] NO

[Q] State the result this test recorded for CC[C@]12CC(C(=O)OC)=C3Nc4ccccc4[C@@]34CCN(C14)[C@@H]1c3cc4c(cc3O[C@@H]1[C@H]2O)NC1=C(C(=O)OC)C[C@@]2(CC)C3N(CC[C@@]143)C[C@H]1O[C@H]12 (some centres undefined) .
[A] NO

[Q] State the result this test recorded for Cc1ncn(-c2ccc(/C=N/Nc3ccnc4cc(Cl)ccc34)cc2)c1C .
[A] YES

[Q] State the result this test recorded for Cc1ccc(S(=O)(=O)NCCCNc2nccc(-c3[nH]c(-c4ccccc4)nc3-c3ccc(F)c(O)c3)n2)cc1 .
[A] NO

[Q] State the result this test recorded for C#C[C@]1(O)CC[C@H]2[C@@H]3CC=C4c5sc(Nc6ccc(C)cn6)nc5CC[C@]4(C)[C@H]3CC[C@@]21C .
[A] NO

---

# System: HCT-116 colon
# measurement.description: NCI-60 one-dose screen, 48 h
# protocol.conditions: 10 µM unless noted
# Procedure: Growth inhibition of the HCT-116 human tumor cell line is measured as a screen for anti-cancer activity. Cells are grown in 96 well plates and exposed to the test compound for 48 hours. Compounds are tested at a single concentration, which is 10^-5 M for most compounds. The reported endpoint is percent growth (GI% or GIPRCNT), where numbers from 0 - 100% represent growth inhibition, and numbers from -100% - 0 represent cell death. For example, a value of 40 represents 60% growth inhibition. […]
This is part of a sample that, as a whole, favours compounds with a hit. Of some 83,000 tested, about 20% had one in any assay. The source made the active and inactive calls. How the source made its calls: active means growth percent below 10; inactive means the rest.
Reply using exactly one outcome from yes (1) for active, no (0) for inactive

Record excerpt, results attached:
{"structure.notation": "Cn1cc(-c2cc3ncnc(Nc4ccc(NC(=O)Nc5cc(C(C)(C)C)on5)cc4)c3s2)cn1", "classification": "no (0)"}
{"structure.notation": "O=C(/C=C/c1ccccc1)c1cccc(O)c1", "classification": "no (0)"}
{"structure.notation": "COc1ccccc1/C=C1\\Oc2ccc(O)c(O)c2C1=O", "classification": "no (0)"}

[Q] State the result this test recorded for CCCCCCNC(=O)Oc1ccc(/C(=C(/C)c2ccc(OC)cc2)c2ccc(OCCN3CCCCCC3)cc2)cc1 .
[A] yes (1)

[Q] State the result this test recorded for CC1(C)CC[C@]2(C(=O)NCCCCCCN(CCCN)CCCN)CC[C@]3(C)C(=CC[C@@H]4[C@@]5(C)CC[C@H](O)C(C)(C)[C@@H]5CC[C@]43C)[C@@H]2C1 .
[A] no (0)

[Q] State the result this test recorded for CS(=O)(=O)c1ccc(/C(=N/N=C(N)N)c2ccc(F)cc2)cc1 .
[A] no (0)

[Q] State the result this test recorded for Cc1ccc2c(n1)C(=O)C(Cl)=C(Nc1ccc(C)c(C)c1)C2=O .
[A] no (0)

[Q] State the result this test recorded for O=C(COc1ccc(/C=C2\C(=O)Nc3ccc(Cl)cc32)cc1)Nc1ccc(Cl)cc1 .
[A] no (0)

[Q] State the result this test recorded for COc1ccc(/C=N/NC(=O)CSc2nc(-c3cnccn3)cc(-c3cccs3)c2C#N)cc1OC .
[A] no (0)

[Q] State the result this test recorded for N#CC1=C2NCCCNc3oc(nc3C#N)Cc3ccccc3CC(=N1)O2 .
[A] no (0)

---

# System: UACC-62 melanoma
# measurement.description: NCI-60 one-dose screen, 48 h (100 = growth as untreated, 0 = no growth, -100 = all killed)
# protocol.conditions: 10 µM unless noted
This is part of a sample that, as a whole, favours compounds with a hit. Of some 83,000 tested, about 20% had one in any assay.
Would you kindly list growth for each of these molecules?
Answers are plain numbers, in %.

{"molecule": "CCc1cc2c(cc1Cl)nc1c(=O)[nH]c(=O)nc-1n2CCOCC(C)(C)C", "growth, %": 76.1}
{"molecule": "CC1=C(C)C(=O)C(Nc2ccc3c(c2)OCO3)=C(Br)C1=O", "growth, %": 87.4}
{"molecule": "Cc1[nH]c(C(=O)Nc2ccc(C(N)=O)cc2N2CCOC(C)C2)c(Cl)c1Cl (stereo not given)", "growth, %": 91.1}
{"molecule": "Brc1ccc(-c2cc(-c3ccc4c(c3)OC=CO4)n[nH]2)s1", "growth, %": 83.2}
{"molecule": "Cc1cc2nc(C(Cl)Cl)nc(-c3ccc(S(=O)(=O)N(C)C)cc3)n2n1", "growth, %": 68.5}
{"molecule": "C#Cc1cc(OC)c(C(=O)Nc2ccc(F)cc2C(=O)Nc2cccc(S(=O)(=O)C(F)(F)F)c2)cn1", "growth, %": 18.8}
{"molecule": "CN(C)c1ccc(/C=N/Nc2nc(N/N=C/c3ccc(N(C)C)cc3)nc(N3CCCCC3)n2)cc1", "growth, %": 101}
{"molecule": "CC[C@]12C=CCN3CC[C@@]4(c5ccc(OC)cc5N(C)[C@H]4[C@@](O)(C(=O)OC)[C@@H]1OC(=O)CCN1CCc4ccccc4C1)[C@@H]32", "growth, %": 99}

Please report growth for every entry that follows.
1. CCCCSC1=C(Cl)CN(c2ccc(Cl)cc2)C1=O
2. Cc1cc(=O)[nH]c(O)c1C#N

[A]
1. 93.4
2. 91.7

Please report growth for every entry that follows.
1. CCOC(=O)c1ccc(NC2=CC(=O)C(C)=C(C)C2=O)cc1
2. COc1ccc(OC)c(CCn2cncc2-c2c[nH]c3ccc(Cl)cc23)c1
3. CN1CCN(c2ccc(Nc3nc(NCCNS(=O)(=O)c4ccc5ccccc5c4)c4sccc4n3)cc2)CC1
4. CCCCN1C(=O)/C(=c2\sc3n(c2=O)C2C(NN=3)N(CC)C(=O)N2CC)c2cccc(C)c21 (stereo not given)
5. O=C1C(N2CCN(c3ccccc3)CC2)=C(Cl)C(=O)c2ncccc21
6. O=C(CSc1nnc(-c2cccs2)n1-c1ccccc1)Nc1ccccc1F
7. O=C(CN1CCN(c2cc(=O)[nH]c3ccc(F)cc23)CC1)N(c1ccccc1)c1ccccc1

[A]
[74.1, 40.7, 66.5, 38.7, 61.8, 57.7, 98]

Please report growth for every entry that follows.
1. O=C(/C=C/c1ccc(Cl)c(Cl)c1)Nc1ncc(Cc2ccc(Cl)c(Cl)c2)s1
2. CCOc1cccc(/C(N)=N/C(N)=N/c2nc3ccccc3s2)c1
3. CN1CCN(CCNc2nc(-c3cccc(NS(=O)(=O)c4cccc5c(N(C)C)cccc45)c3)cs2)CC1

[A]
[10.3, 81.4, 65.7]
